# target-system: Flt4(h) (Homo sapiens)
# Construct: purchased Upstate Biotechnology (Dundee, UK), KinaseProfiler service
# test-details: KinaseProfiler assay (Upstate), Flt4
# Type: biochemical
# reported-conditions: 0.1 μM
experimental-endpoint: inhibition at 0.1 µM (%)
Please reply with the bare figure in % and do not write the unit itself.

A selection of reference data follows.
compound: Cc1cccc(C(=O)Nc2cccc([C@H](C)Nc3cncc(-c4ccc(S(N)(=O)=O)cc4)n3)c2)c1 [Compound 77]
unit-string: %
result-value: 98
--
compound: Cc1cccc(C(=O)Nc2cccc([C@H](C)Nc3cncc(C(N)=O)n3)c2)c1 [Compound 133]
unit-string: %
result-value: 95
--
compound: C[C@H](Nc1cncc(Cl)n1)c1cccc(NC(=O)c2cccc(C(F)(F)F)c2)c1 [Compound 114]
unit-string: %
result-value: 92

We now examine a further compound.
input: Suppose we examine the compound Cc1cccc(C(=O)Nc2cccc([C@H](C)Nc3cncc(-c4cccc(N5CCOCC5)c4)n3)c2)c1 [Compound 147] ; what inhibition at 0.1 µM value has been reported?
output: 100

###

pIC50 values by entry
# target-system: PDGFR β tyrosine kinase (Homo sapiens, UniProt P09619)
# Construct: purchased Upstate Cell Signalling Solutions, CA, USA 14-463
# Sequence (P09619 33-1106): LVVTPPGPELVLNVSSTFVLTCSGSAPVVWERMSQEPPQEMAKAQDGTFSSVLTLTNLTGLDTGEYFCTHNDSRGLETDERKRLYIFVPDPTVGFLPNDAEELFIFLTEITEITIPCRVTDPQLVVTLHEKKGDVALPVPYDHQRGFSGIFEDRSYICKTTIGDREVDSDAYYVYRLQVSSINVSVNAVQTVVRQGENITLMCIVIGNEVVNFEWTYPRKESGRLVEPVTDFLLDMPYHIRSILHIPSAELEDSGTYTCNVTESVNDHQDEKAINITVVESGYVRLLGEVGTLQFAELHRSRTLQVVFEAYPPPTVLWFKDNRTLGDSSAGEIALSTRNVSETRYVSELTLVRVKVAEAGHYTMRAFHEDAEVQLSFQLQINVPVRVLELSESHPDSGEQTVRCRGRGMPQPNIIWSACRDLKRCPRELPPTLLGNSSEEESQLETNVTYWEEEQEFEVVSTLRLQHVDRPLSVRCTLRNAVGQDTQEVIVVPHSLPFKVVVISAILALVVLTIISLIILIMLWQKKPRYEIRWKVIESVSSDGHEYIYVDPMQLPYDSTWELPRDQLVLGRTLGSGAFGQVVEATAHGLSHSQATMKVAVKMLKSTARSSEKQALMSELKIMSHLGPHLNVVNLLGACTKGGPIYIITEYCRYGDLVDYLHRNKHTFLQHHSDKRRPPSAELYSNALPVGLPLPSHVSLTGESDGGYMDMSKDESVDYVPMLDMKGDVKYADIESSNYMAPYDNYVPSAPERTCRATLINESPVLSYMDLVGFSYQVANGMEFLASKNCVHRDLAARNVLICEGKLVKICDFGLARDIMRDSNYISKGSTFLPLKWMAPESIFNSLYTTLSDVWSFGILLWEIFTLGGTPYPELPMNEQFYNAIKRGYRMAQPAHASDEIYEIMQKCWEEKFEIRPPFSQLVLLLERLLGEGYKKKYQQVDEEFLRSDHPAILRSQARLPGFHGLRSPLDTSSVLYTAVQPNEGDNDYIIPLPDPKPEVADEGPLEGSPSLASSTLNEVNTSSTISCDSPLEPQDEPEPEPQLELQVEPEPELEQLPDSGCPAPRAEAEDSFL
# test-details: Alphascreen protein tyrosine kinase assay, PDGFRβ
# Format: biochemical
pIC50: −log10 of the molar value.

Worked examples follow.
molecule: COc1cc(-c2cncc(N[C@@H](C)c3cccc(NC(=O)c4cncc(C)c4)c3)n2)ccc1OP(=O)(O)O [Compound 35]
pIC50: > 6.00

molecule: Cc1cncc(C(=O)Nc2cccc([C@H](C)Nc3cncc(-c4ccc(N5CCOCC5)nc4)n3)c2)c1 [Compound 79]
pIC50: > 6.00

molecule: COc1cc(-c2cncc(N[C@@H](C)c3cccc(NC(=O)c4cccc(C)c4)c3)n2)ccc1O [Compound 76]
pIC50: > 6.00

input: For Cc1cccc(C(=O)Nc2cccc([C@H](C)Nc3cncc(-c4ccc(N5CCOCC5)cc4)n3)c2)c1 [Compound 81] , what is its reported pIC50?
output: > 6.00

input: Please look up its pIC50: C[C@H](Nc1cncc(-c2cn[nH]c2)n1)c1cccc(NC(=O)c2cccnc2)c1 [Compound 19]
output: > 6.00

input: Field request: pIC50 | item: Cc1cncc(C(=O)Nc2cccc([C@H](C)Nc3cncc(-c4ccc(N5CCOCC5)cc4)n3)c2)c1 [Compound 65]
output: > 7.00

input: Quick one: pIC50 for Cc1cccc(C(=O)Nc2cccc([C@H](C)Nc3cncc(N4CCC(O)CC4)n3)c2)c1 [Compound 95] ?
output: > 6.00

input: What does the data say about its pIC50? Entry: C[C@H](Nc1cncc(-c2cccnc2)n1)c1cccc(NC(=O)c2cccnc2)c1 [Compound 11]
output: > 6.00

###

# System: mNFS-60
# test-details: Cellular assay (Alamar Blue), mNFS-60 with human M-CSF
# Assay type: cell-based
# reported-conditions: human M-CSF at 20 ng/ml, 72 hr
pIC50: −log10 of the molar value.
experimental-endpoint: pIC50

For orientation, consider the following solved cases.
chem-smiles: C[C@H](Nc1cncc(-c2ccc(CN3CCN(C)CC3)cc2)n1)c1cccc(NC(=O)c2cccc(C(F)(F)F)c2)c1
pIC50: > 6.70
--
chem-smiles: Cc1cccc(C(=O)Nc2cccc([C@H](C)Nc3cncc(C(N)=O)n3)c2)c1
pIC50: > 6.70
--
chem-smiles: Cc1cncc(C(=O)Nc2cccc([C@H](C)Nc3cncc(Br)c3)c2)c1
pIC50: > 6.00

input: // pIC50 lookup, key: `Cc1cccc(C(=O)Nc2cccc([C@H](C)Nc3cncc(-c4ccc(S(N)(=O)=O)cc4)n3)c2)c1`
output: > 6.70

input: Could you tell me which pIC50 is on file for `Cc1cccc(C(=O)Nc2cccc([C@H](C)Nc3cncc(-c4ccc(N5CCN(C)CC5)cc4)n3)c2)c1` ?
output: > 6.70

input: May I ask what pIC50 has been recorded for `Cc1cncn1-c1cncc(N[C@@H](C)c2cccc(NC(=O)c3cccc(C(F)(F)F)c3)c2)n1` ?
output: > 6.70

input: // lookup pIC50 for `C[C@H](Nc1cncc(-c2cccc(S(N)(=O)=O)c2)n1)c1cccc(NC(=O)c2cccc(C(F)(F)F)c2)c1`
output: > 6.70

###

Catalogue of compounds with associated inhibition at 1 µM
# target-system: EphA8(h) (Homo sapiens)
# Construct: purchased Upstate Biotechnology (Dundee, UK), KinaseProfiler service
# Sequence (P29322 28-1005): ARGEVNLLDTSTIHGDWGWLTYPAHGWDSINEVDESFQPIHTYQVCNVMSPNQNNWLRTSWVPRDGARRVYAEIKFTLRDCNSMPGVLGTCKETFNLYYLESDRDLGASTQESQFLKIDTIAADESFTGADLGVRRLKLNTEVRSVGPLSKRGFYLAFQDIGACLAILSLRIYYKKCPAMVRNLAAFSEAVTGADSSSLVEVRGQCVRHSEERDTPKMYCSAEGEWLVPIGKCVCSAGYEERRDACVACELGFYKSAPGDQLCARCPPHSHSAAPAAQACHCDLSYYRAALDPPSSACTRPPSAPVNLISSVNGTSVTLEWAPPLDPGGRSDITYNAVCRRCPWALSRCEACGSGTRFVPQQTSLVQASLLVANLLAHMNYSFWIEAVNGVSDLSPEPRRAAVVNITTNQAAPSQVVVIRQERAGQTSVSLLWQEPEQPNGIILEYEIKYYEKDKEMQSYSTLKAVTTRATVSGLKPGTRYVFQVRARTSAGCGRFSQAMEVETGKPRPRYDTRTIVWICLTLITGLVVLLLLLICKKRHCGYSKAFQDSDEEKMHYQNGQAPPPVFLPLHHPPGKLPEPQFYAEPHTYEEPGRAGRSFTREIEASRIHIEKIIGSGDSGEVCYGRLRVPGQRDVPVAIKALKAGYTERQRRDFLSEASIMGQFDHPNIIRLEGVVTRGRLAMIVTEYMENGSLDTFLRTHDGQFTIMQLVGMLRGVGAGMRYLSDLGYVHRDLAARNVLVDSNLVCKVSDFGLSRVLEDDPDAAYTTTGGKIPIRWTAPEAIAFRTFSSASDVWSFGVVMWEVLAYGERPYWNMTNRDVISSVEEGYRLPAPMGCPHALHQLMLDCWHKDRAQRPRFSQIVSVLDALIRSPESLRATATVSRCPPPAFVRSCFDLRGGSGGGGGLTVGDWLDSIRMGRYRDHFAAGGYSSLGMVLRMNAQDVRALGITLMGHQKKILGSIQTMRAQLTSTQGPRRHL
# test-details: KinaseProfiler assay (Upstate), EphA8
# Assay type: biochemical
# reported-conditions: 1 μM
Just the number in %, nothing appended.

The cases that follow already have their inhibition at 1 µM on record.
chem-smiles: Cc1cccc(C(=O)Nc2cccc([C@H](C)Nc3cncc(-c4cccc(N5CCOCC5)c4)n3)c2)c1
inhibition at 1 µM [%]: 98

chem-smiles: Cc1cccc(C(=O)Nc2ccc(C)c([C@H](C)Nc3cncc(Cl)n3)c2)c1
inhibition at 1 µM [%]: 102

chem-smiles: Cc1cccc(C(=O)Nc2cccc([C@H](C)Nc3cncc(-n4ccnc4)n3)c2)c1
inhibition at 1 µM [%]: 82

chem-smiles: C[C@H](Nc1cncc(-c2ccc(N3CCN(C)CC3)cc2)n1)c1cccc(NC(=O)c2cccc(C(F)(F)F)c2)c1
inhibition at 1 µM [%]: 100

chem-smiles: Cc1cccc(C(=O)Nc2cccc([C@H](C)Nc3cncc(C(N)=O)n3)c2)c1
inhibition at 1 µM [%]: 64

input: Report inhibition at 1 µM for `Cc1cccc(C(=O)Nc2cccc([C@H](C)Nc3cncc(-c4ccc(N5CCN(C)CC5)cc4)n3)c2)c1` please.
output: 90

input: What measured inhibition at 1 µM goes with `Cc1cccc(C(=O)Nc2cccc([C@H](C)Nc3cncc(-c4ccc(S(N)(=O)=O)cc4)n3)c2)c1` ?
output: 99

input: GET /values?readout=inhibition at 1 µM&item= `C[C@H](Nc1cncc(-c2cccc(N3CCOCC3)c2)n1)c1cccc(NC(=O)c2cccc(C(F)(F)F)c2)c1`
output: 103

input: May I ask what inhibition at 1 µM has been recorded for `C[C@H](Nc1cncc(Cl)n1)c1cccc(NC(=O)c2cccc(C(F)(F)F)c2)c1` ?
output: 97

###

# target-system: EphA3(h) (Homo sapiens)
# Construct: purchased Upstate Biotechnology (Dundee, UK), KinaseProfiler service
# Sequence (P29320 21-983): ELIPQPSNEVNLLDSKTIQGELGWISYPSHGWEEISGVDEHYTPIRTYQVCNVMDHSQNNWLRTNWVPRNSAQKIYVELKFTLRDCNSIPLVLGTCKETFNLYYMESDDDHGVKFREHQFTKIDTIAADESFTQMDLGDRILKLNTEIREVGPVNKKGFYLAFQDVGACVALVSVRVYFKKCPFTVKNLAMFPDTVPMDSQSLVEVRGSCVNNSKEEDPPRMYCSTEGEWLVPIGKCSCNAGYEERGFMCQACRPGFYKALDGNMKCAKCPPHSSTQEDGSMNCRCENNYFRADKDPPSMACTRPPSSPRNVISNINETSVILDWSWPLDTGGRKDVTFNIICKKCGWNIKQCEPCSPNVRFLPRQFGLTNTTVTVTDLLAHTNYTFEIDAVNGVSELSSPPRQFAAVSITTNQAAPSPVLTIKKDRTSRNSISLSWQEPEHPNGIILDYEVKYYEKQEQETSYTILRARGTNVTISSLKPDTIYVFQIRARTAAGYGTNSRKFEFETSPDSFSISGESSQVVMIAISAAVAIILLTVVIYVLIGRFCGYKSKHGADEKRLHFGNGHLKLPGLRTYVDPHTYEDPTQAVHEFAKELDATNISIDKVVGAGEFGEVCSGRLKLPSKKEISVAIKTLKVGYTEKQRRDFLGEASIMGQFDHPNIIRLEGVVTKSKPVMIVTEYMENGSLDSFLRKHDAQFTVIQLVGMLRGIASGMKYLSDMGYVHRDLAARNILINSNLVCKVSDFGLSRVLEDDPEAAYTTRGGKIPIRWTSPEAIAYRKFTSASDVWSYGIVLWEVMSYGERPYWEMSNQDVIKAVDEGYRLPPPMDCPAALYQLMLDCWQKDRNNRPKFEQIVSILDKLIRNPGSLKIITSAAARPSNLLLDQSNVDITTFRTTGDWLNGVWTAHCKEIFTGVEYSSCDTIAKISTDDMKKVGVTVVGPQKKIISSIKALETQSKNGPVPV
# test-details: KinaseProfiler assay (Upstate), EphA3
# Format: biochemical
# reported-conditions: 0.1 μM
Classify by measured inhibition at 0.1 µM: condition met if it is equal to or exceeds 20%, condition not met if it is smaller.

input: Check if inhibition at 0.1 µM >= 20% (inclusive). Item: `Cc1cccc(C(=O)Nc2cccc([C@H](C)Nc3cncc(-c4ccc(N5CCN(C)CC5)cc4)n3)c2)c1`
output: condition not met

input: Evaluate `C[C@H](Nc1cncc(Cl)n1)c1cccc(NC(=O)c2cccc(C(F)(F)F)c2)c1` : inhibition at 0.1 µM at minimum 20%?
output: condition met

input: // inclusive: inhibition at 0.1 µM at least 20%? input: `C[C@H](Nc1cncc(-c2ccc(N3CCN(C)CC3)cc2)n1)c1cccc(NC(=O)c2cccc(C(F)(F)F)c2)c1`
output: condition met

input: Evaluate `Cc1cccc(C(=O)Nc2cccc([C@H](C)Nc3cncc(C(N)=O)n3)c2)c1` : inhibition at 0.1 µM at minimum 20%?
output: condition not met

input: Does inhibition at 0.1 µM meet or surpass 20% for `C[C@H](Nc1cncc(-c2cccc(N3CCOCC3)c2)n1)c1cccc(NC(=O)c2cccc(C(F)(F)F)c2)c1` ?
output: condition met

###

# inhibition at 0.1 µM annotations
# target-system: Flt4(h) (Homo sapiens, UniProt P35916)
# Construct: purchased Upstate Biotechnology (Dundee, UK), KinaseProfiler service
# Sequence (P35916 25-1363): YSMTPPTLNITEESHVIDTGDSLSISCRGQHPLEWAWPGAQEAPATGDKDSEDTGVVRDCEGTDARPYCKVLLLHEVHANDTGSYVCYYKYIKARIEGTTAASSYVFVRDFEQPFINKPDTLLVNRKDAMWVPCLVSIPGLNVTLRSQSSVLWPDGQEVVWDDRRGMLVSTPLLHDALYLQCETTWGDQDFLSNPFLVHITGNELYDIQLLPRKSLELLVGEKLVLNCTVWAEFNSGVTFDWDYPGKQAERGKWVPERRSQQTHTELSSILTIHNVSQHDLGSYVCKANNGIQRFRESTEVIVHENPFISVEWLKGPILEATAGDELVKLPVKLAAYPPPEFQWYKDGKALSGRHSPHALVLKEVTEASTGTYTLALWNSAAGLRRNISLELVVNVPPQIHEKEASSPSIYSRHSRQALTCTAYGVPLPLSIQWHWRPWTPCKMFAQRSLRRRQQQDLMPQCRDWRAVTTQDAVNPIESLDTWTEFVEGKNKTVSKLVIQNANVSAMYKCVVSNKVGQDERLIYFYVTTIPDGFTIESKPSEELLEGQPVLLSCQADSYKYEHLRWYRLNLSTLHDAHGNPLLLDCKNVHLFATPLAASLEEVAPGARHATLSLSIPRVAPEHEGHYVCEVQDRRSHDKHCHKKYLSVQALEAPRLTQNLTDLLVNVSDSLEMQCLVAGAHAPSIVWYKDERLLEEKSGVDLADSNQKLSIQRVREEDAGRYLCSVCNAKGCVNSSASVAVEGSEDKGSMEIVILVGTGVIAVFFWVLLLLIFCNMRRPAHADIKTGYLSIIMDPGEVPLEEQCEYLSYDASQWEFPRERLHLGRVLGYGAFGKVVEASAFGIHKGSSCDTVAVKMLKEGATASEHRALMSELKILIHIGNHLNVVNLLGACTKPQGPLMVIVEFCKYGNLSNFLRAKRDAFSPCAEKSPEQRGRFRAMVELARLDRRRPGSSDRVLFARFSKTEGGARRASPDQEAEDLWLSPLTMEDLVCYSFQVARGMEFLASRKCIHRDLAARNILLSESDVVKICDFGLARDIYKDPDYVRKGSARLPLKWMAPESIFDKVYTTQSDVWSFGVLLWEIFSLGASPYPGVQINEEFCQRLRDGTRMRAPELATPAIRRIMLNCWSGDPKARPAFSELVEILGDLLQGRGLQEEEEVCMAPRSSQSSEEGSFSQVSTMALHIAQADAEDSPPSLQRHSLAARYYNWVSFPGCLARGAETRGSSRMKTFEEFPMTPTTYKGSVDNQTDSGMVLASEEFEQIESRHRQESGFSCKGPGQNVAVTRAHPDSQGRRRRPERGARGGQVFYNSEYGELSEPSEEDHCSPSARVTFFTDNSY
# test-details: KinaseProfiler assay (Upstate), Flt4
# Type: biochemical
# reported-conditions: 0.1 μM
# Protocol: Further enzyme assays were conducted at Upstate Biotechnology (Dundee, UK) in the KinaseProfiler™ Assay system. The general protocol is as follows. All kinases are pre-diluted to a 10× working concentration prior to addition into the assay. The composition of the dilution buffer for the kinases is 20 mM MOPS pH 7.0, 1 mM EDTA, 0.1% β-mercaptoethanol, 0.01% Brij-35, 5% glycerol, 1 mg/ml BSA. All substrates are dissolved and diluted to working stocks in de-ionised water.
Lab book: enter the figure in %, no units written.

chem-smiles: Cc1cccc(C(=O)Nc2cccc([C@H](C)Nc3cncc(-n4ccnc4)n3)c2)c1
inhibition at 0.1 µM, %: 95
--
chem-smiles: Cc1cccc(C(=O)Nc2cccc([C@H](C)Nc3cncc(-c4ccc(N5CCN(C)CC5)cc4)n3)c2)c1
inhibition at 0.1 µM, %: 100
--
chem-smiles: C[C@H](Nc1cncc(-c2cccc(N3CCOCC3)c2)n1)c1cccc(NC(=O)c2cccc(C(F)(F)F)c2)c1
inhibition at 0.1 µM, %: 96
--
chem-smiles: C[C@H](Nc1cncc(-c2ccc(N3CCN(C)CC3)cc2)n1)c1cccc(NC(=O)c2cccc(C(F)(F)F)c2)c1
inhibition at 0.1 µM, %: 96

// below: inhibition at 0.1 µM requested for another compound
input: Fill in the blank: the reported inhibition at 0.1 µM of `Cc1cccc(C(=O)Nc2ccc(C)c([C@H](C)Nc3cncc(Cl)n3)c2)c1` is ____.
output: 96
